TARGET: … (Plasmodium falciparum)
PROTOCOL_DETAILS: BLI, target on sensor
This section presents binders with their documented Kd values.
Numbers only here, please. The scale is µM.

Worked cases, answers included:
BINDER	Kd (µM)
AB-007036 (antibody, V domains shown) VH: QMQLVESGGGVVQPGRSLRLSCTASGFTFSTYAMHWVRQSPGQGLQWVAVISYDSTNKYYEDSVRGRFTISRDNSKNTLYLQMNSLRAEDTAVYYCARDGYSSSFFDFWGQGTLVTVSS VL: DIQMTQSPSTLSASVGDRVAITCRASQSISRWLAWYQQQPGKAPKLLMSGASVLESGVPSRFSGSGSGTEFTLTISSLQPDDFATYYCQHYNSYFVTFGQGTKVEIK	0.0169
AB-007067 (antibody, V domains shown) VH: QMQLVESGGGVVQPGRSLRLSCTASGFTFSTYAMHWVRQSPGQGLQWVAVISYHSTNKYYEDSVRGRFTISRDNSKNTLYLQMNSLRAEDTAVYYCARDGYSSSFFDFWGQGTLVTVSS VL: DIQMTQSPSTLSASVGDRVAITCRASQSISRWLAWYQQQPGKAPKLLMSSASVLESGVPSRFSGSGSGTEFTLTISSLQPDDFATYYCQHYNSYFVTFGQGTKVEIK	0.0361
AB-007047 (antibody, V domains shown) VH: QMQLVESGGGVVQPGRSLRLSCTASGFTFSNYAMHWVRQSPGQGLQWVAVISYHSTNKYYEDSVRGRFTISRDNSKNTLYLQMNSLRAEDTAVYYCARDGYSSSFFDFWGQGTLVTVSS VL: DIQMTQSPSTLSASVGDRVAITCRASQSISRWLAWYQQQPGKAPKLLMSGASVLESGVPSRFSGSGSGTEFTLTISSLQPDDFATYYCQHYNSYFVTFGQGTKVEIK	0.00543
AB-007074 (antibody, V domains shown) VH: QMQLVESGGGVVQPGRSLRLSCAASGFTFSTYAMHWVRQAPGQGLQWVAVISYHSTNKYYEDSVRGRFTISRDNSKNTLYLQMNSLRAEDTAVYYCARDGYSSSFFDFWGQGTLVTVSS VL: DIQMTQSPSTLSASVGDRVTITCRASQSISRWLAWYQQQPGKAPKLLMSGASVLESGVPSRFSGSGSGTEFTLTISSLQPDDFATYYCQHYNSYYVTFGQGTKVEIK	0.00605

Shift focus to the following entry.
Sure, the documented Kd for AB-007050 (antibody, V domains shown) VH: QMQLVESGGGVVQPGRSLRLSCTASGFTFSTYAMHWVRQSPGQGLQWVAVISQHSTNKYYEDSVRGRFTISRDNSKNTLYLQMNSLRAEDTAVYYCARDGYSSSFFDFWGQGTLVTVSS VL: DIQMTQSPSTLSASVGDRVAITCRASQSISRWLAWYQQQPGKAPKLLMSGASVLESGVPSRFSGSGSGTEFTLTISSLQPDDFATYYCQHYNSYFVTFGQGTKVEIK is 0.0374
